# Tested on: KRAS G12V protein/effector signaling in SW620 cells
# EXPERIMENT_NOTES: Cell-based pERK HTRF assay in SW620 cell
# PROTOCOL_CONDITIONS: Homo sapiens, SW-620, 1 h incubation
# Method: pERK assay (Perkin Elmer) was used to determine the effectiveness of compounds in disrupting KRAS G12V protein/effector signaling in cells. […] Samples were homogenized by pipetting up and down and then transferred (16 μL of cell lysates) from the 96-well cell culture plate to two wells of the HTRF 384-well detection plate containing the antibody solution. […] Therefore, readings could be made between 4 and 24 h of incubation. […]
pIC50: −log10 of the molar value.
OBSERVABLE: pIC50

Query: What measured pIC50 goes with CN(c1nc(OCC2CCOCC2)nc2c(F)c(-c3ccc(F)c4sc(N)c(C#N)c34)c(C(F)(F)F)cc12)[C@@H]1CCCNC1 ?
Reply: < 5.00

Query: Further, for N#Cc1c(N)sc2c(F)ccc(-c3c(C(F)(F)F)cc4c(N5CC6CCC(C5)N6)nc(OCCO)nc4c3F)c12 ?
Reply: < 5.00

Query: Also check N#Cc1c(N)sc2c(F)ccc(-c3c(C(F)(F)F)cc4c(N5CC6CCC(C5)N6)nc(OCCc5ccon5)nc4c3F)c12
Reply: < 5.00

Query: Would you kindly repeat that for CN1C(=O)CC[C@@H]1COc1nc(N2CC3CCC(C2)N3)c2cc(C(F)(F)F)c(-c3ccc(F)c4sc(N)c(C#N)c34)c(F)c2n1 ?
Reply: < 5.00

Query: Field entry: N#Cc1c(N)sc2c(F)ccc(-c3c(C(F)(F)F)cc4c(N5CC6CCC(C5)N6)nc(OCCC5CCOCC5)nc4c3F)c12
Reply: < 5.00

Query: Also N#Cc1c(N)sc2c(F)ccc(-c3c(C(F)(F)F)cc4c(N5CC6CCC(C5)N6)nc(OCCC5CCOC5)nc4c3F)c12 (stereo not drawn) , if possible.
Reply: < 5.00

====

# Test system: KRAS G12V protein/effector signaling in SW620 cells
# EXPERIMENT_NOTES: Cell-based pERK HTRF assay in SW620 cell
# PROTOCOL_CONDITIONS: Homo sapiens, SW-620, 1 h incubation
pIC50: −log10 of the molar value.
Could you please report measured pIC50 for the items listed next?

Query: Any idea what its pIC50 is? The molecule is CO[C@@H](C)COc1nc(N2CC3CCC(C2)N3)c2cc(C(F)(F)F)c(-c3ccc(F)c4sc(N)c(C#N)c34)c(F)c2n1
Reply: < 5.00

Query: How about CC(=O)Nc1nc(N2CC3CCC(C2)N3)c2cc(C(F)(F)F)c(-c3ccc(F)c4sc(N)c(C#N)c34)c(F)c2n1 ?
Reply: < 5.00

Query: Same question for N#Cc1c(N)sc2c(F)ccc(-c3c(C(F)(F)F)cc4c(N5CC6CCC(C5)N6)nc(OCCCO)nc4c3F)c12 please.
Reply: < 5.00

Query: Also need N#Cc1c(N)sc2c(F)ccc(-c3c(C(F)(F)F)cc4c(N5CC6CCC(C5)N6)nc(OC[C@H]5COCCO5)nc4c3F)c12 , thanks.
Reply: < 5.00

Query: Also, N#Cc1c(N)sc2c(F)ccc(-c3c(C(F)(F)F)cc4c(N5CC6CCC(C5)N6)nc(OCC5CCCOC5)nc4c3F)c12 (stereo not drawn) please.
Reply: < 5.00

Query: Next record, please: N#Cc1c(N)sc2c(F)ccc(-c3c(C(F)(F)F)cc4c(N5C[C@H]6CC[C@@H](C5)N6)nc(OCC5CCOCC5)nc4c3F)c12
Reply: < 5.00

====

Consider the following compounds; for each one, report its IC50.
# ASSAYED_TARGET: Avi-KRAS G12D (1-169) GppNHp/RAF1 RBD-3×FLAG (52-151) (Homo sapiens, UniProt P01116, G12D)
# Construct: 50 nM Avi-KRAS G12D (1-169) GppNHp/RAF1 RBD-3×FLAG (52-151)
# Sequence (P01116 1-169 isoform P01116-2 G12D limits assumed): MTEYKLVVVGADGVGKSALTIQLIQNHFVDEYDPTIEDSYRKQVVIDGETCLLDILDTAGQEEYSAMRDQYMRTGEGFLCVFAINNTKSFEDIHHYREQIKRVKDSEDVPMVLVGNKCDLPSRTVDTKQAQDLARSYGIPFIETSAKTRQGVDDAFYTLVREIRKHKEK
# EXPERIMENT_NOTES: Disrupting RAS-effector binding HTRF assay, Raf1 RBD-KRAS G12D-GppNHp
# PROTOCOL_CONDITIONS: PPI HTRF, 50 nM Avi-KRAS G12D GppNHp, compound titration 30-0.0045 μM; read-out: Raf1 RBD-KRAS G12D-GppNHp disruption

Query: If you can, please state the reported IC50 value of N#Cc1c(N)sc2c(F)ccc(-c3c(C(F)(F)F)cc4c(N5CC6CCC(C5)N6)nc(OCCc5cn[nH]c5)nc4c3F)c12 .
Reply: 1 to 10 µM

Query: Continue with CN(c1ncnc2c(F)c(-c3ccc(F)c4sc(N)c(C#N)c34)c(C(F)(F)F)cc12)[C@@H]1CCNC1
Reply: 1 to 10 µM

Query: Now give it for COc1nc(N2CC3CCC(C2)N3)c2cc(C(F)(F)F)c(-c3ccc(F)c4sc(N)c(C#N)c34)c(F)c2n1 too.
Reply: 1 to 10 µM

Query: Please do the same for Cc1nc(N2C[C@H]3CC[C@@H](C2)N3)c2cc(C(F)(F)F)c(-c3ccc(F)c4sc(N)c(C#N)c34)c(F)c2n1 as well.
Reply: 1 to 10 µM

Query: Same thing, different compound: N#Cc1c(N)sc2c(F)ccc(-c3c(C(F)(F)F)cc4c(N5CC6CCC(C5)N6)nc(OCCCCO)nc4c3F)c12
Reply: 0.1 to 1 µM

Query: Another compound to check: CN1C[C@H](COc2nc(N3CC4CCC(C3)N4)c3cc(C(F)(F)F)c(-c4ccc(F)c5sc(N)c(C#N)c45)c(F)c3n2)CC1=O
Reply: 0.1 to 1 µM

Query: Let us now turn to N#Cc1c(N)sc2c(F)ccc(-c3c(C(F)(F)F)cc4c(N5CC6CCC(C5)N6)nc(O)nc4c3F)c12
Reply: > 10 µM

====

# ASSAYED_TARGET: Avi-KRAS G12D (1-169) GppNHp/RAF1 RBD-3×FLAG (52-151) (Homo sapiens, UniProt P01116, G12D)
# Construct: 50 nM Avi-KRAS G12D (1-169) GppNHp/RAF1 RBD-3×FLAG (52-151)
# EXPERIMENT_NOTES: Disrupting RAS-effector binding HTRF assay, Raf1 RBD-KRAS G12D-GppNHp
# PROTOCOL_CONDITIONS: PPI HTRF, 50 nM Avi-KRAS G12D GppNHp, compound titration 30-0.0045 μM; read-out: Raf1 RBD-KRAS G12D-GppNHp disruption
OBSERVABLE: IC50

Query: Suppose we examine the compound N#Cc1c(N)sc2c(F)ccc(-c3c(C(F)(F)F)cc4c(N5CC6CCC(C5)N6)nc(OCCc5ccon5)nc4c3F)c12 [Compound 42] ; what IC50 value has been reported?
Reply: 100 to 1000 nM

Query: Follow-up entry: CN(C(=O)c1cnn(C)c1)c1nc(N2CC3CCC(C2)N3)c2cc(C(F)(F)F)c(-c3ccc(F)c4sc(N)c(C#N)c34)c(F)c2n1 [Compound 27]
Reply: > 10000 nM

Query: Repeat for the following compound: N#Cc1c(N)sc2c(F)ccc(-c3c(C(F)(F)F)cc4c(N5CC6CCC(C5)N6)nc(OCC5CCCCO5)nc4c3F)c12 (stereo not drawn) [Compound 49]
Reply: 1000 to 10000 nM

====

# ASSAYED_TARGET: Avi-KRAS G12D (1-169) GppNHp/RAF1 RBD-3×FLAG (52-151) (Homo sapiens, UniProt P01116, G12D)
# Construct: 50 nM Avi-KRAS G12D (1-169) GppNHp/RAF1 RBD-3×FLAG (52-151)
# EXPERIMENT_NOTES: Disrupting RAS-effector binding HTRF assay, Raf1 RBD-KRAS G12D-GppNHp
# PROTOCOL_CONDITIONS: PPI HTRF, 50 nM Avi-KRAS G12D GppNHp, compound titration 30-0.0045 μM; read-out: Raf1 RBD-KRAS G12D-GppNHp disruption
OBSERVABLE: IC50

Query: Data request, read-out IC50, for N#Cc1c(N)sc2c(F)ccc(-c3c(C(F)(F)F)cc4c(N5CC6CCC(C5)N6)nc(OCCC5CCOCC5)nc4c3F)c12
Reply: 100 to 1000 nM

Query: Do the same for COCCOc1nc(N2CC3CCC(C2)N3)c2cc(C(F)(F)F)c(-c3ccc(F)c4sc(N)c(C#N)c34)c(F)c2n1 please
Reply: 1000 to 10000 nM

Query: Would you mind doing N#Cc1c(N)sc2c(F)ccc(-c3c(C(F)(F)F)cc4c(N5CC6CCC(C5)N6)nc(OCC5(CO)CC5)nc4c3F)c12 as well?
Reply: 100 to 1000 nM

Query: Item: N#Cc1c(N)sc2c(F)ccc(-c3c(C(F)(F)F)cc4c(N5CC6CCC(C5)N6)nc(OC5CC(O)C5)nc4c3F)c12 (stereo not drawn) [Compound 11]
Reply: 1000 to 10000 nM

Query: // next record CC(=O)N(C)c1nc(N2C[C@H]3CC[C@@H](C2)N3)c2cc(C(F)(F)F)c(-c3ccc(F)c4sc(N)c(C#N)c34)c(F)c2n1
Reply: > 10000 nM

Query: Similarly, COc1c(Cl)c(-c2ccc(F)c3sc(N)c(C#N)c23)c(F)c2ncnc(N3CC4CCC(C3)N4)c12 ?
Reply: > 10000 nM
